Numbers sourced from patent US7989464B2.

biological target: hmGluR1 receptor (Homo sapiens); construct: expressed in transfected cells; assay: IC50 determination: intracellular calcium mobilization (FLIPR) upon Quisqualate stimulation in CHO cells stably expressing hmGluR1; type: cell-based; conditions: against Quisqualate 1 μM (EC80), FLIPR calcium mobilization, read-out: IC50 Class
Sequence (Q13255 19-1194): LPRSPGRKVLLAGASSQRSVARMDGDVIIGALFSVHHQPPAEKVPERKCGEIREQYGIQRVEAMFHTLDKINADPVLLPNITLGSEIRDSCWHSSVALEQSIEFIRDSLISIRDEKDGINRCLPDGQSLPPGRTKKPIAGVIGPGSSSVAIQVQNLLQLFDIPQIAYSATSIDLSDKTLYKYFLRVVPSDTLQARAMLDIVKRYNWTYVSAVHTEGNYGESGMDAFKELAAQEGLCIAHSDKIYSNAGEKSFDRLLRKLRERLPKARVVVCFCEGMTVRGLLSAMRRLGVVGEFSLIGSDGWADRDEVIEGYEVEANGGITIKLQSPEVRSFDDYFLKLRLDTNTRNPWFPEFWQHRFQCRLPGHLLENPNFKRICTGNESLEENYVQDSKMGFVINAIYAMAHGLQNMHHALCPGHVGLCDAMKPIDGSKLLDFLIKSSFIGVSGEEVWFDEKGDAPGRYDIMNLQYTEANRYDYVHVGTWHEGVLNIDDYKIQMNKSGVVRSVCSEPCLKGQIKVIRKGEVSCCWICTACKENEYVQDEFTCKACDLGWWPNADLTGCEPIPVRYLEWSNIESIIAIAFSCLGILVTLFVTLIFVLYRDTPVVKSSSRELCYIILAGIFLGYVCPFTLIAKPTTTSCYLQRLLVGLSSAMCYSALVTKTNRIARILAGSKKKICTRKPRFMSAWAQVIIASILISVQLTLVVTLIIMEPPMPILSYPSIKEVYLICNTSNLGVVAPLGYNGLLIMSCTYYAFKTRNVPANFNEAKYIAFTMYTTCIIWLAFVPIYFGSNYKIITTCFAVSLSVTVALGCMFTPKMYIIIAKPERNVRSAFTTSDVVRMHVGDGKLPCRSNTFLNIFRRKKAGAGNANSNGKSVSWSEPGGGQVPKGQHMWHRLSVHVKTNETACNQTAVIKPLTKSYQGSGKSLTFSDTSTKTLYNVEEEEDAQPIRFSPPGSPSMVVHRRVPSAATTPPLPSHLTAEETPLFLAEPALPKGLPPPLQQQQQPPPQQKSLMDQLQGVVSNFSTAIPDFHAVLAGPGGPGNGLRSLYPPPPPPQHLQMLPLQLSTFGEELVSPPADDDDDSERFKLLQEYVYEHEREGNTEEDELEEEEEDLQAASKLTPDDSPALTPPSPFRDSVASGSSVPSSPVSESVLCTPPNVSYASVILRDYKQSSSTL

Compound: NC(=O)CNc1ccnc2sc3c(=O)n(-c4ccc(F)cc4)cnc3c12 [28GG]
IC50: 150 to 1000 nM

Compound: O=c1c2sc3ncnc(NC4CC4)c3c2ncn1-c1ccc(Br)cc1F [95AX]
IC50: 50 to 150 nM

Compound: O=c1c2sc3nccc(NCCO)c3c2ncn1-c1ccc2occc2c1 [28BD]
IC50: < 50 nM

Compound: COc1ccc(-n2cnc3c(sc4nc(Cl)cc(NC5CC5)c43)c2=O)cc1 [57D]
IC50: 150 to 1000 nM

Compound: COc1ccc(-n2cnc3c(sc4nccc(NC5CC5)c43)c2=O)c(C)c1 [131I]
IC50: 50 to 150 nM
